Below, each entry is listed alongside its reported pest or weed control at 25 ppm.
System: Mycosphaerella graminicola; Anamorph: Septoria tritici; Bayer Code SEPTTR
Method Summary: Leaf blotch of wheat, foliar fungicide treatment, one day protectant (1DP) or three day curative (3DC)
Format: in vivo, Septoria tritici on wheat plants (variety Yuma)
Condition: Zymoseptoria tritici, 72 h, three day curative (3DC), 25 ppm, percent control rating, read-out: SEPTTR 3DC 25 ppm
Property Label: pest or weed control at 25 ppm

# Smiles Input, Property Label, Experimental Value
data = [
    ("C=CCOc1ncc(F)c(NNc2cccc(F)n2)n1", "pest or weed control at 25 ppm", "0 to 25%"),
    ("C=CCOc1ncc(F)c(NNc2cc(C)ccc2C)n1", "pest or weed control at 25 ppm", "0 to 25%"),
    ("O=C(NCc1ccccc1)Nc1nc(O)ncc1F", "pest or weed control at 25 ppm", "26 to 50%"),
    ("Cc1ccc(C)c(NNc2nc(OCc3ccccc3)ncc2F)c1", "pest or weed control at 25 ppm", "0 to 25%"),
    ("Cc1ccc(CN(C)c2nc(O)ncc2F)cc1", "pest or weed control at 25 ppm", "51 to 75%"),
]

* * *

Test system: Mycosphaerella graminicola; Anamorph: Septoria tritici; Bayer Code SEPTTR
Method Summary: Leaf blotch of wheat, foliar fungicide treatment, one day protectant (1DP) or three day curative (3DC)
Assay type: in vivo, Septoria tritici on wheat plants (variety Yuma)
Condition: Zymoseptoria tritici, 24 h, one day protectant (1DP), 25 ppm, rating of percent disease control, read-out: SETTTR 1DP 25 ppm

# Compound, pest or weed control at 25 ppm
records = [
    ("COc1ccccc1COc1ncc(F)c(NC(C)=O)n1", "76 to 100%"),
    ("Nc1nc(OCc2ccco2)ncc1F", "76 to 100%"),
    ("NNc1nc(OCc2ccccc2)ncc1F", "51 to 75%"),
    ("CN(C)/C=N/c1nc(OCc2cccc(F)c2)ncc1F", "76 to 100%"),
    ("Nc1nc(OCc2cccc(OC(F)(F)F)c2)ncc1F", "76 to 100%"),
    ("CC(Oc1ncc(F)c(/N=C/N(C)C)n1)c1ccc(F)cc1 (stereo not shown)", "76 to 100%"),
    ("CN1CCC/C1=N\\c1nc(OCc2ccc(F)cc2)ncc1F", "76 to 100%"),
    ("COc1ccccc1CCOc1ncc(F)c(N)n1", "0 to 25%"),
    ("CC(C)(C)OC(=O)NOc1ncc(F)c(N)n1", "76 to 100%"),
    ("CN(C)/C=N/c1nc(OC(=O)c2c(Cl)cccc2Cl)ncc1F", "76 to 100%"),
]

* * *

Listed below: pest or weed control at 25 ppm values for each entry.
Tested on: Mycosphaerella graminicola; Anamorph: Septoria tritici; Bayer Code SEPTTR
Method Summary: Leaf blotch of wheat, foliar fungicide treatment, one day protectant (1DP) or three day curative (3DC)
Assay type: in vivo, Septoria tritici on wheat plants (variety Yuma)
Condition: Zymoseptoria tritici, 24 h, one day protectant (1DP), 25 ppm, rating of percent disease control, read-out: SETTTR 1DP 25 ppm

# Compound, pest or weed control at 25 ppm
records = [
    ("CONc1nc(OCc2ccc(F)cc2)ncc1F [Compound 233]", "51 to 75%"),
    ("Nc1nc(OCc2ccccc2Cn2cncn2)ncc1F [Compound 383]", "0 to 25%"),
    ("Cc1ccc(COc2ncc(F)c(NNc3ccccc3)n2)cc1 [Compound 766]", "0 to 25%"),
    ("COc1ccccc1OC(=O)Oc1ncc(F)c(/N=C/N(C)C)n1 [Compound 444]", "76 to 100%"),
    ("COc1ccccc1COc1ncc(F)c(NC(=S)NCc2ccccc2F)n1 [Compound 797]", "51 to 75%"),
]

* * *

Test system: Mycosphaerella graminicola; Anamorph: Septoria tritici; Bayer Code SEPTTR
Method Summary: Leaf blotch of wheat, foliar fungicide treatment, one day protectant (1DP) or three day curative (3DC)
Format: in vivo, Septoria tritici on wheat plants (variety Yuma)
Condition: Zymoseptoria tritici, 24 h, one day protectant (1DP), 100 ppm, rating of percent disease control, read-out: SEPTTR 1DP 100 ppm
Property Label: pest or weed control at 100 ppm

# Molecule, Property Label, Experimental Value
records = [
    ("CN1CCCC/C1=N\\c1nc(OCc2ccn(C)n2)ncc1F", "pest or weed control at 100 ppm", "76 to 100%"),
    ("CNC(=S)Nc1nc(OCc2ccc(C)cc2)ncc1F", "pest or weed control at 100 ppm", "76 to 100%"),
    ("CS(=O)(=O)Oc1ncc(F)c(N)n1", "pest or weed control at 100 ppm", "76 to 100%"),
    ("COc1ccc(COc2ncc(F)c(NC(=S)Nc3ccccc3F)n2)cc1F", "pest or weed control at 100 ppm", "76 to 100%"),
    ("CCOCNc1nc(OCc2ccc(F)cc2)ncc1F", "pest or weed control at 100 ppm", "76 to 100%"),
    ("Fc1cnc(OCc2ccccc2)nc1NNc1ccccc1", "pest or weed control at 100 ppm", "26 to 50%"),
    ("COc1ccccc1COc1ncc(F)c(NC(=O)Nc2ccccc2F)n1", "pest or weed control at 100 ppm", "0 to 25%"),
    ("CC(Oc1ncc(F)c(N)n1)c1ccc(Oc2ccccc2)cc1 (stereo not shown)", "pest or weed control at 100 ppm", "76 to 100%"),
    ("Nc1nc(OCc2cccc(OC(F)F)c2)ncc1F", "pest or weed control at 100 ppm", "76 to 100%"),
    ("COc1ccc(COc2ncc(F)c(N)n2)cc1", "pest or weed control at 100 ppm", "76 to 100%"),
]

* * *

Test system: Mycosphaerella graminicola; Anamorph: Septoria tritici; Bayer Code SEPTTR
Method Summary: Leaf blotch of wheat, foliar fungicide treatment, one day protectant (1DP) or three day curative (3DC)
Assay type: in vivo, Septoria tritici on wheat plants (variety Yuma)
Condition: Zymoseptoria tritici, 24 h, one day protectant (1DP), 25 ppm, rating of percent disease control, read-out: SETTTR 1DP 25 ppm
pest or weed control at 25 ppm overview
Property Label: pest or weed control at 25 ppm

# Molecule, Property Label, Experimental Value
records = [
    ("CN(O)c1nc(OCc2ccc(F)cc2)ncc1F", "pest or weed control at 25 ppm", "0 to 25%"),
    ("Cc1oc(-c2ccccc2)cc1COc1ncc(F)c(N)n1", "pest or weed control at 25 ppm", "76 to 100%"),
    ("CO/N=C\\Nc1nc(OCc2ccc(F)cc2)ncc1F", "pest or weed control at 25 ppm", "76 to 100%"),
    ("CC(C)(C)OCCOc1ncc(F)c(N)n1", "pest or weed control at 25 ppm", "0 to 25%"),
    ("CCOC(=O)COC(=O)Nc1nc(OCc2cccc(F)c2)ncc1F", "pest or weed control at 25 ppm", "0 to 25%"),
    ("Fc1cccc(COc2ncc(F)c(NC(=S)Nc3ccccc3F)n2)c1", "pest or weed control at 25 ppm", "76 to 100%"),
    ("Nc1nc(OCC2CCCC2)ncc1F", "pest or weed control at 25 ppm", "0 to 25%"),
    ("NNc1nc(OCc2ccc(F)cc2)ncc1F", "pest or weed control at 25 ppm", "26 to 50%"),
    ("Nc1nc(OCC2Cc3ccccc3O2)ncc1F (centres unmarked)", "pest or weed control at 25 ppm", "51 to 75%"),
    ("Cc1cc(C)c(COc2ncc(F)c(/N=C/N(C)C)n2)c(C)c1", "pest or weed control at 25 ppm", "76 to 100%"),
    ("COc1cccc(COc2ncc(F)c(OC)n2)c1", "pest or weed control at 25 ppm", "0 to 25%"),
    ("CCOC(=O)COC(=O)Nc1nc(OCc2cccc(C#N)c2)ncc1F", "pest or weed control at 25 ppm", "0 to 25%"),
    ("O=C(Nc1ccccc1F)Nc1nc(OCc2ccccc2)ncc1F", "pest or weed control at 25 ppm", "0 to 25%"),
    ("COc1c(F)cc(F)cc1COc1ncc(F)c(N)n1", "pest or weed control at 25 ppm", "76 to 100%"),
    ("CC(=O)OC[C@H]1O[C@@H](Oc2ncc(F)c(N)n2)[C@H](OC(C)=O)[C@@H](OC(C)=O)[C@@H]1OC(C)=O", "pest or weed control at 25 ppm", "76 to 100%"),
    ("Cn1nc(COc2ncc(F)c(N)n2)c2ccccc21", "pest or weed control at 25 ppm", "76 to 100%"),
    ("Nc1nc(OCCCc2ccncc2)ncc1F", "pest or weed control at 25 ppm", "0 to 25%"),
    ("Nc1nc(OCc2cc(Cl)cc(C(F)(F)F)c2)ncc1F", "pest or weed control at 25 ppm", "76 to 100%"),
    ("COc1cccc(COc2ncc(F)c(NNC3CCCCC3)n2)c1", "pest or weed control at 25 ppm", "0 to 25%"),
    ("COCCOC(=O)Nc1nc(OCc2cccc(OC)c2)ncc1F", "pest or weed control at 25 ppm", "51 to 75%"),
]
